Tested on: Hela (human cervical cancer cells)
Assay: MTT cancer cell growth inhibition
Type: cell-based
Conditions: Homo sapiens, HeLa, 72 h, MTT, 72 hours incubation; read-out: GI50 Hela
Readout kind: GI50 (nM)

Recorded GI50, per entry:
INSERT INTO assay_data (compound, assay_result) VALUES
  ('C/C=C1\NC(=O)c2cc(F)cc(n2)CNC(=O)C[C@@H](/C=C/CCSC(=O)CCCCCCC)OC(=O)[C@H](C)NC1=O [Compound 61]', 80),
  ('CC(=O)SCC/C=C/[C@@H]1CC(=O)NCc2nc(ccc2F)C(=O)NC(=C(C)C)C(=O)N[C@@H](C(C)C)C(=O)O1 [Compound 89]', 90),
  ('C/C=C1\NC(=O)c2nc(ccc2F)CNC(=O)C[C@@H](/C=C/CCSC(=O)CCC)OC(=O)[C@H](C(C)C)NC1=O [Example 42]', 50);

I: C/C=C1\NC(=O)c2ccc(F)c(n2)CNC(=O)C[C@@H](/C=C/CCSC(=O)CCCCCCC)OC(=O)[C@H](CC)NC1=O [Example 56]
II: C/C=C1\NC(=O)c2cc(C)cc(n2)CNC(=O)C[C@@H](/C=C/CCSC(C)=O)OC(=O)[C@H](Cc2ccccc2)NC1=O [Example 67]
Ask: // which entry reports the smaller GI50, I or II ? When you have decided, please share the label of that item.
Reply: II

I: C=C1NC(=O)c2ccc(F)c(n2)CNC(=O)C[C@@H](/C=C/CCSC(C)=O)OC(=O)[C@H](C(C)C)NC1=O [Compound 86]
II: C/C=C1\NC(=O)c2cccc(n2)CNC(=O)C[C@@H](/C=C/CCSC(C)=O)OC(=O)[C@H](Cc2ccccc2)NC1=O [Compound 13]
Ask: Which one would you say has the larger GI50 value: I , or II ? When you have decided, please share the label of that item.
Reply: II

1: CC(C)=C1NC(=O)c2ccc(F)c(n2)CNC(=O)C[C@@H](/C=C/CCS)OC(=O)[C@H](C(C)C)NC1=O [Compound 138]
2: C/C=C1\NC(=O)c2nc(ccc2F)CNC(=O)C[C@@H](/C=C/CCSC(C)=O)OC(=O)[C@H](Cc2ccc(O)cc2)NC1=O [Compound 81]
Ask: Which one would you say has the larger GI50 value: 1 , or 2 ? When you have decided, please share the label of that item.
Reply: 1
(1: 60 nM, 2: 30 nM)

A: C/C=C1\NC(=O)c2cc(F)cc(n2)CNC(=O)C[C@@H](/C=C/CCS)OC(=O)[C@H](C(C)C)NC1=O [Compound 107]
B: C/C=C1\NC(=O)c2cccc(n2)CNC(=O)C[C@@H](/C=C/CCSC(C)=O)OC(=O)[C@H](C(C)C)NC1=O [Compound 7]
C: C/C=C1\NC(=O)c2ncc(F)c(n2)CNC(=O)C[C@@H](/C=C/CCSC(C)=O)OC(=O)[C@H](C(C)C)NC1=O [Compound 97]
Ask: Descending sort on GI50 required. Form field (ranking): labels in requested order.
Reply: C, A, B
(C: 90 nM, A: 60 nM, B: 40 nM)

----------
Biological target: HDAC3 (Homo sapiens)
Sequence (O15379 whole entry, species assumed): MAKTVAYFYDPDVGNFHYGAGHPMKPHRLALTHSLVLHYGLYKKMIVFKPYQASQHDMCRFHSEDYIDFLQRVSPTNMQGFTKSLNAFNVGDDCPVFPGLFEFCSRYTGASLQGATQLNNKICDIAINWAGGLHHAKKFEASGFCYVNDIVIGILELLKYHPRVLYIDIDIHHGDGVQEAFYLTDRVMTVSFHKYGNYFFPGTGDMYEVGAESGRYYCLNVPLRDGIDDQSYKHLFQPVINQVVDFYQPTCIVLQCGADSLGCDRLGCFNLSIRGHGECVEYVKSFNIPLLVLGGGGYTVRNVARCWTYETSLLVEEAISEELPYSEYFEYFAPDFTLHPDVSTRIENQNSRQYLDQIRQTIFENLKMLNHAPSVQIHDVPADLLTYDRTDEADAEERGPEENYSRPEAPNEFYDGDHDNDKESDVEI
Sequence (Q9Y618 395-489 partner limits assumed, species assumed): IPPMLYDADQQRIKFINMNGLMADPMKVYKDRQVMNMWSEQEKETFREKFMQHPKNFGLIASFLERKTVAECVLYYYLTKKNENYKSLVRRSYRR
Assay: HDAC biochemical activity measurement (fluorescent substrate deacetylation);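 note: fluorogenic acetyl-lysine substrate (20 µM) deacetylated by HDAC3, then developer added for 15 min at room temperature, release of fluorophore read at excitation 360 nm, emission 460 nm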
Details: read-out: IC50 HDAC3; HDAC3; 37° C. 30 minutes
pIC50: −log10 of the molar value.
Readout kind: pIC50

Recorded pIC50, per entry:
INSERT INTO measurements (compound, readout_kind, assay_result) VALUES
  ('C/C=C1\NC(=O)c2nc(F)cc(n2)CNC(=O)C[C@@H](/C=C/CCSC(C)=O)OC(=O)[C@H](C(C)C)NC1=O [Compound 98]', 'pIC50', 7.21),
  ('C/C=C1\NC(=O)c2cccc(n2)CNC(=O)C[C@@H](/C=C/CCSC(=O)CCCCCCC)OC(=O)[C@H](C(C)(C)C)NC1=O [Compound 237]', 'pIC50', 7.46),
  ('C/C=C1\NC(=O)c2cc(F)cc(n2)CNC(=O)C[C@@H](/C=C/CCSC=O)OC(=O)[C@H](C(C)C)NC1=O [Compound 52]', 'pIC50', 7.42),
  ('C/C=C1\NC(=O)c2cccc(n2)CNC(=O)C[C@@H](/C=C/CCSC(=O)CCC)OC(=O)[C@H](C(C)C)NC1=O [Compound 5]', 'pIC50', 7.31);

I: C/C=C1\NC(=O)c2cc(F)cc(n2)CNC(=O)C[C@@H](/C=C/CCSC(=O)CCCCCCC)OC(=O)[C@H](C)NC1=O [Compound 61]
II: C/C=C1\NC(=O)c2cccc(n2)CNC(=O)C[C@@H](/C=C/CCSC(=O)CC)OC(=O)[C@H](C(C)C)NC1=O [Compound 6]
Ask: Which one would you say has the larger pIC50 value: I , or II ? When you have decided, please share the label of that item.
Reply: I
